src = patent US20230203170A1

Biological target: T1, human CSF1R-His (Acrobiosystem, CSR-H5228) (human, UniProt P07333 20-512, limits assumed)
T1 construct: Bought protein; The catalogue number is printed only for the SPR assay; also called human CSF-1R protein; not shown: His tag
T1 sequence (P07333 20-512 limits assumed): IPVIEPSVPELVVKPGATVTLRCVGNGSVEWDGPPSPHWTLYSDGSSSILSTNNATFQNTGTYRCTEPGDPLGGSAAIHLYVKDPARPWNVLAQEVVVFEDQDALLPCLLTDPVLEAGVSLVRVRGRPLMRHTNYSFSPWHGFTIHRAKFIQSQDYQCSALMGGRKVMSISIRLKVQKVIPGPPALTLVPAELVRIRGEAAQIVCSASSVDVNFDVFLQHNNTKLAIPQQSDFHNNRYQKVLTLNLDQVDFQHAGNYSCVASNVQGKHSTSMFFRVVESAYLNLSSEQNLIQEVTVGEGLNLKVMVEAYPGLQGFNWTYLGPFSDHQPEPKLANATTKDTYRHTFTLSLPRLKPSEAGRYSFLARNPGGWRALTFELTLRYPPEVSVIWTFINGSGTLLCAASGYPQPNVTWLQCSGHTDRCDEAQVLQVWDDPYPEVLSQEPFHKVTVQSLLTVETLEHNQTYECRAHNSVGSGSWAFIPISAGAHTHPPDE
Assay: SPR Biacore T200; IgG captured by anti-human Fc, CSF1R-His as analyte, 1:1 fit
reported property: Kd (nM)
Answers are plain numbers, in nM.

{"binder": "TY21428 (antibody, human IgG4, V domains shown, Human IgG4 isotype with S241P mutation) VH: EVQLVESGGGLVQPGGSLRLSCAASGFTFSNYGIHWVRQAPGKGLEWVSVISGYGGSTYYADSVKGRFTISRDNSKNTLYLQLNSLRAEDTAVYYCARRGLTSTYFDYWGQGTLVTVSS VL: DIQLTQSPSSLSASVGDRVTITCRASQSVGSWLAWYQQKPGKAPKLLIYDASNLETGVPSRFSGSGSGTDFTLTISSLQPEDFATYYCQQSYPIPPTFGQGTKVEIK", "Kd [nM]": 9.86}
{"binder": "TY21373 (antibody, human IgG4, V domains shown, Human IgG4 isotype with S241P mutation) VH: EVQLVESGGGLVQPGGSLRLSCAASGYSISSGYYWGWIRQAPGKGLEWVSSISGYGSSTYYADSVKGRFTISRDNSKNTLYLQLNSLRAEDTAVYYCARGAYGYFDYWGQGTLVTVSS VL: DIQLTQSPSSLSASVGDRVTITCPASSSVSYIHWYQQKPGKAPKLLIYDASNLETGVPSRFSGSGSGTDFTLTISSLQPEDFATYYCQQYYPWPWTFGQGTKVEIK", "Kd [nM]": 23.6}

Working through the 4 binders below one at a time, give Kd for each.
1. TY21372 (antibody, human IgG4, V domains shown, Human IgG4 isotype with S241P mutation) VH: EVQLVESGGGLVQPGGSLRLSCAASGYTFSDYAIHWVRQAPGKGLEWVSVISGYGSTTYYADSVKGRFTISRDNSKNTLYLQLNSLRAEDTAVYYCARASSYGGFDYWGQGTLVTVSS VL: DIQLTQSPSSLSASVGDRVTITCRASQDVSTAVAWYQQKPGKAPKLLIYDASNRATGIPSRFSGSGSGTDFTLTISSLQPEDFATYYCQQYYPWPWTFGQGTKVEIK
2. TY21431 (antibody, human IgG4, V domains shown, Human IgG4 isotype with S241P mutation) VH: EVQLVESGGGLVQPGGSLRLSCAASGFTFTDYAIHWVRQAPGKGLEWVSVISGYGSSTYYADSVKGRFTISRDNSKNTLYLQLNSLRAEDTAVYYCARGSYSSVYFDVWGQGTLVTVSS VL: DIQLTQSPSSLSASVGDRVTITCKASQDVRTAVAWYQQKPGKAPKLLIYAASSLQSGVPSRFSGSGSGTDFTLTISSLQPEDFATYYCQQSYPIPFTFGQGTKVEIK
3. TY21432 (antibody, human IgG4, V domains shown, Human IgG4 isotype with S241P mutation) VH: EVQLVESGGGLVQPGGSLRLSCAASGYTFSSYAIHWVRQAPGKGLEWVSVISGAGSSTYYADSVKGRFTISRDNSKNTLYLQLNSLRAEDTAVYYCARRTPAGNYFDYWGQGTLVTVSS VL: DIQLTQSPSSLSASVGDRVTITCRASQGISRWLAWYQQKPGKAPKLLIYDASSLESGVPSRFSGSGSGTDFTLTISSLQPEDFATYYCEQYLEVPPTFGQGTKVEIK
4. TY21375 (antibody, human IgG4, V domains shown, Human IgG4 isotype with S241P mutation) VH: EVQLVESGGGLVQPGGSLRLSCAASGFTFSDYAIHWVRQAPGKGLEWVSVISGYGGSTYYADSVKGRFTISRDNSKNTLYLQLNSLRAEDTAVYYCARSGGGGYYFDYWGQGTLVTVSS VL: DIQLTQSPSSLSASVGDRVTITCRASQGIRSYLAWYQQKPGKAPKLLIYAASSLQSGVPSRFSGSGSGTDFTLTISSLQPEDFATYYCQQSYHWPLTFGQGTKVEIK

Reply:
[1.61, 20.9, 13.8, 35.5]
